Test system: Enterococcus sp.
Assay: In vitro antibacterial evaluation: minimum inhibitory concentration (MIC), broth dilution method
Assay type: cell-based
Conditions: broth dilution, inoculum 5×10^5 CFU/mL, 18 hours at 35° C.
Readout label: MIC Enterococcus faecium (GC 4557) (µg/mL)
Express your answer in µg/mL, writing the number without its unit.

The compound COc1ccc2cc(COC3C(OC4C(CO)OC(Oc5ccc(CC6NC(=O)C(C(C)c7ccccc7)NC(=O)CNC(=O)C(CO)NC(=O)C(C(O)C7CNC(=N)N7C7OC(CO)C(O)C(O)C7O)NC(=O)C(C(O)C7CNC(=N)N7)NC6=O)cc5)C(O)C4O)OC(CO)C(O)C3O)ccc2c1 (centres unmarked) [Example 230c] , when measured on Enterococcus sp., yielded MIC Enterococcus faecium (GC 4557) of 32

Every entry's value here was drawn from patent US8247211B2.
